- PROTOCOL_NOTES: Half life in Sprague-Dawley rat at 1 mg/kg, iv
- Format: ADME, organism-based
- RECORDED_CONDITIONS: in vivo
RECORDED_ENDPOINT: half-life (h)
Value expressed in h; do not type the unit.

Recall and state the measured half-life for `Cc1ccc(C(=O)Nc2ccc(CN3CCN(C)CC3)c(C(F)(F)F)c2)cc1Oc1nc(-c2cccnc2)nc2[nH]ncc12` .
4.28

###

- ASSAY_TARGET: Coiled-coil domain-containing protein 6/Tyrosine-protein kinase receptor RET (Homo sapiens) (UniProt P07949+Q16204)
- Sequence (Q16204 2-474 partner limits assumed, one chain of several): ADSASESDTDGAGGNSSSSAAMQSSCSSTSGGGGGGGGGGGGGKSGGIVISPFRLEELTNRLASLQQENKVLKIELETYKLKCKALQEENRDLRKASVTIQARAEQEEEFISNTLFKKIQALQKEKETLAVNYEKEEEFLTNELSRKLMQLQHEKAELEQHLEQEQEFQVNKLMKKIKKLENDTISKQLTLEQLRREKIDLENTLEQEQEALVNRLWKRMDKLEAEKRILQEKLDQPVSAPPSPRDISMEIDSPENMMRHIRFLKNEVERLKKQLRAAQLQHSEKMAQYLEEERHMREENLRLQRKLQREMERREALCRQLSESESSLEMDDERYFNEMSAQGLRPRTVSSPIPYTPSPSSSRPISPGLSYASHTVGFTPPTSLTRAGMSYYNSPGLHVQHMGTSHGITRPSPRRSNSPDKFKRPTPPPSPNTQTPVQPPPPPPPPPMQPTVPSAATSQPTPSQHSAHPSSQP
- PROTOCOL_NOTES: Inhibition of CCDC6-RET fusion protein (unknown origin) expressed in mouse BaF3 cells assessed as reduction in cell proliferation measured after 48 hrs by MTS assay
- Type: cell-based
Each entry below carries its reported GI50.
Give just the number in nM; leave the unit off.

Cc1ccc(C(=O)Nc2ccc(CN3CCN(C)CC3)c(C(F)(F)F)c2)cc1Oc1nc(-c2ccc(O)cc2)nc2c1cnn2C
166

Quote GI50 reported for `CN1CCN(Cc2ccc(NC(=O)c3cc(Oc4nc(-c5ccncc5)nc5c4cnn5C)ccc3Cl)cc2C(F)(F)F)CC1` please.
108

###

Known GI50 of a selection of compounds
- System: Kinesin-1 heavy chain/ Tyrosine-protein kinase receptor RET (Homo sapiens), P07949+P33176 [V804M]
- PROTOCOL_NOTES: Inhibition of KIF5B-RET V804M mutant fusion protein (unknown origin) expressed in mouse BaF3 cells assessed as reduction in cell proliferation measured after 48 hrs by MTS assay
- Type: cell-based

Cc1ccc(C(=O)Nc2ccc(CN3CCN(C)CC3)c(C(F)(F)F)c2)cc1Oc1nc(-c2cccc(O)c2)nc2c1cnn2C
0.274 µM
COc1cc2nccc(Oc3ccc(NC(=O)C4(C(=O)Nc5ccc(F)cc5)CC4)cc3)c2cc1OC [CABOZANTINIB]
1.21 µM
CN1CCN(Cc2ccc(C(=O)Nc3cc(Oc4nc(-c5ccncc5)nc5[nH]ncc45)ccc3Cl)cc2C(F)(F)F)CC1
6.52 µM

Next compound, please.
Using known records, supply GI50 for `Cc1ccc(C(=O)Nc2ccc(CN3CCN(C)CC3)c(C(F)(F)F)c2)cc1Oc1nc(-c2ccoc2)nc2c1cnn2C`
0.29 µM

###

- ASSAY_TARGET: Kinesin-1 heavy chain/ Tyrosine-protein kinase receptor RET (Homo sapiens) (UniProt P07949+P33176)
- PROTOCOL_NOTES: Inhibition of KIF5B-RET fusion protein (unknown origin) expressed in mouse BaF3 cells assessed as reduction in cell proliferation measured after 48 hrs by MTS assay
- Format: cell-based
RECORDED_ENDPOINT: log10 GI50 (log10 of the value in nM)
Values below are the log10 of the recorded GI50, with nM as the unit.

For orientation, consider the following solved cases.
Cc1ccc(C(=O)Nc2ccc(CN3CCN(C)CC3)c(C(F)(F)F)c2)cc1Oc1nc(Nc2ccccc2)nc2c1cnn2C
1.85
CN1CCN(Cc2ccc(C(=O)Nc3cccc(Oc4nc(-c5cccnc5)nc5[nH]ncc45)c3)cc2C(F)(F)F)CC1
2.91
Cc1ccc(C(=O)Nc2ccc(CN3CCN(C)CC3)c(C(F)(F)F)c2)cc1Oc1nc(-c2ccncc2)nc2[nH]ncc12
2.38
CN1CCN(Cc2ccc(C(=O)Nc3cc(Oc4nc(-c5cccnc5)nc5[nH]ncc45)ccc3Cl)cc2C(F)(F)F)CC1
3.13
Cc1ccc(Oc2nc(-c3ccncc3)nc3c2cnn3C)cc1NC(=O)c1ccc(CN2CCN(C)CC2)c(C(F)(F)F)c1
0.78

Give log10 GI50 for the following compound: `Cc1ccc(C(=O)Nc2cccc(C(F)(F)F)c2)cc1Oc1nc(-c2cccnc2)nc2c1cnn2C`
3.35

Using the record for `Cc1ccc(C(=O)Nc2ccc(CN3CCN(C)CC3)c(C(F)(F)F)c2)cc1Oc1nc(-c2ccccc2)nc2c1cnn2C` , state its measured log10 GI50.
1.99

Return value of log10 GI50 for input `CN1CCN(Cc2ccc(C(=O)Nc3cccc(Oc4nc(-c5ccncc5)nc5c4cnn5C)c3)cc2C(F)(F)F)CC1` , no commentary.
2.03

Read off the recorded log10 GI50 for `Cc1ccc(C(=O)Nc2ccc(CN3CCN(C)CC3)c(C(F)(F)F)c2)cc1Oc1nc(-c2cccc(Cl)c2)nc2c1cnn2C`
2.51

Complete the entry with log10 GI50 for `Cc1ccc(Oc2nc(-c3ccncc3)nc3[nH]ncc23)cc1NC(=O)c1ccc(CN2CCN(C)CC2)c(C(F)(F)F)c1`
0.60

###

- PROTOCOL_NOTES: AUC (0 to infinity) in Sprague-Dawley rat at 10 mg/kg, po
- Assay type: ADME, organism-based
- Set-up: time infinity, route oral, dose 10 mg/kg
- RECORDED_CONDITIONS: in vivo
RECORDED_ENDPOINT: AUC(0-inf) (µg·h/mL)
State just the number; it will be interpreted in µg·h/mL.

Look up and state reported AUC(0-inf) for `Cc1ccc(C(=O)Nc2ccc(CN3CCN(C)CC3)c(C(F)(F)F)c2)cc1Oc1nc(-c2cccnc2)nc2[nH]ncc12`
2.34

###

- ASSAY_TARGET: Kinesin-1 heavy chain/ Tyrosine-protein kinase receptor RET (Homo sapiens, UniProt P07949)
- Sequence (P07949 whole entry, the tested form may be a part): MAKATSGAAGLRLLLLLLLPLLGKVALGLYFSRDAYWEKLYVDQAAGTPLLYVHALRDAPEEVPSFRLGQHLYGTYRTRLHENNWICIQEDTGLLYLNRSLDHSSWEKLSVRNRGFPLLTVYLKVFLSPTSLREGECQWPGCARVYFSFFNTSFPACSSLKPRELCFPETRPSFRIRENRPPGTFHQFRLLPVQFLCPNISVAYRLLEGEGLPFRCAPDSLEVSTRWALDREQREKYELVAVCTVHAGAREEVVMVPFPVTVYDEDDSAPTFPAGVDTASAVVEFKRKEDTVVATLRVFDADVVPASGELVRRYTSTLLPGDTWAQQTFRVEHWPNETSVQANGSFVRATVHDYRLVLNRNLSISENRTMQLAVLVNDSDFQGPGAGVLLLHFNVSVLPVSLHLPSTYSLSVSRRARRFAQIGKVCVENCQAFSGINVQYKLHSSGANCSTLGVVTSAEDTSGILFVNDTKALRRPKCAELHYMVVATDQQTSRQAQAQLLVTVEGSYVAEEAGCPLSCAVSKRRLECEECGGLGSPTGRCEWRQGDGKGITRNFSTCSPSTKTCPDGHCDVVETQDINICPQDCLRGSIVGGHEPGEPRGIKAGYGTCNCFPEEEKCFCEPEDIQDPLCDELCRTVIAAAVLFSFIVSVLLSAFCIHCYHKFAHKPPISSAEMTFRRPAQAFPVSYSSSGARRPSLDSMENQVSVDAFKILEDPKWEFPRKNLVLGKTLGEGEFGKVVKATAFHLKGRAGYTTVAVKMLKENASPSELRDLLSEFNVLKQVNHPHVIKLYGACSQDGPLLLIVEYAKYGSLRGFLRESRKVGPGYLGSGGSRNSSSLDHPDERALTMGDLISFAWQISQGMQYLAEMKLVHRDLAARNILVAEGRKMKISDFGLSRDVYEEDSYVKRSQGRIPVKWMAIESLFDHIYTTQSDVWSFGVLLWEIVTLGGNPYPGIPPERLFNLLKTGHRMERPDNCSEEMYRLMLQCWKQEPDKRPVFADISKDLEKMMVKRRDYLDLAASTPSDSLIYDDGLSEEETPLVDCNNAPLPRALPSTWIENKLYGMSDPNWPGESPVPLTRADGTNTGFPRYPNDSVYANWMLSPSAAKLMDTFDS
- Sequence (P33176 whole entry, further chain, the tested form may be a part): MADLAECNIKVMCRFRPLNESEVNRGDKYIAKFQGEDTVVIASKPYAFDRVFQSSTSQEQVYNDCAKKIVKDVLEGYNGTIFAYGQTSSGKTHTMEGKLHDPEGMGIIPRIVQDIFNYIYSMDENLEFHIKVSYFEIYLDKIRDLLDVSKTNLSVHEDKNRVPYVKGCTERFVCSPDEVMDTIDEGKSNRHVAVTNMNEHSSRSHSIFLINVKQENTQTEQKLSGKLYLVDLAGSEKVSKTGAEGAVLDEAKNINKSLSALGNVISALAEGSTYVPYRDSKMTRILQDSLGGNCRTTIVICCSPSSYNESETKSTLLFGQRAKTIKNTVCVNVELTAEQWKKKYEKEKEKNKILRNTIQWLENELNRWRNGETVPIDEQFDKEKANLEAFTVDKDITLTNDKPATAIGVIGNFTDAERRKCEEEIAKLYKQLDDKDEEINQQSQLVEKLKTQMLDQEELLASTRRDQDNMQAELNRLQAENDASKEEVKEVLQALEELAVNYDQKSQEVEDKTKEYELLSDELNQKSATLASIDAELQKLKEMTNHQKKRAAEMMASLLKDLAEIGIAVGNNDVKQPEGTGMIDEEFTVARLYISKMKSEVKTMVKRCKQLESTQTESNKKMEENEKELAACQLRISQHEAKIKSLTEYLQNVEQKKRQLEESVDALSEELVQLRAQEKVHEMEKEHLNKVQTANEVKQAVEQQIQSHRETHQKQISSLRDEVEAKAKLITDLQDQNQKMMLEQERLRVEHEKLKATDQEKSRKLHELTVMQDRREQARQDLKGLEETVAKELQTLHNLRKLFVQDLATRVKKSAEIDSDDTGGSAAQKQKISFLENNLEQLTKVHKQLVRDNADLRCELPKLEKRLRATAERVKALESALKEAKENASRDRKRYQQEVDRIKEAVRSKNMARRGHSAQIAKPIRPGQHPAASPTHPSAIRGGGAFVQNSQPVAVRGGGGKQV
- PROTOCOL_NOTES: Inhibition of KIF5B-RET fusion protein (unknown origin) by radiometric assay
RECORDED_ENDPOINT: IC50 (nM)
The reply should contain only the number, in nM.

Fill in IC50 for record `Cc1ccc(C(=O)Nc2ccc(CN3CCN(C)CC3)c(C(F)(F)F)c2)cc1Oc1nc(-c2cccnc2)nc2[nH]ncc12`
8.86

###

Let's look at some compounds and their measured GI50.
- ASSAY_TARGET: Coiled-coil domain-containing protein 6/Tyrosine-protein kinase receptor RET (Homo sapiens) (UniProt P07949+Q16204)
- PROTOCOL_NOTES: Inhibition of CCDC6-RET fusion protein (unknown origin) expressed in mouse BaF3 cells assessed as reduction in cell proliferation measured after 48 hrs by MTS assay
- Format: cell-based
The answer is to be given in nM; state only the numeric part.

Answered examples (4):
Cc1ccc(C(=O)Nc2ccc(CN3CCN(C)CC3)c(C(F)(F)F)c2)cc1Oc1nc(-c2ccccc2)nc2c1cnn2C
348
Cc1ccc(C(=O)Nc2ccc(CN3CCN(C)CC3)c(C(F)(F)F)c2)cc1Oc1nc(Nc2ccccc2)nc2c1cnn2C
123
Cc1ccc(C(=O)Nc2ccc(CN3CCN(C)CC3)c(C(F)(F)F)c2)cc1Oc1nc(-c2ccoc2)nc2c1cnn2C
75
Cc1ccc(C(=O)Nc2ccc(CN3CCN(C)CC3)c(C(F)(F)F)c2)cc1Oc1nc(-c2ccc(Cl)cc2)nc2c1cnn2C
696

Next, consider the following compound.
For `Cc1ccc(Oc2nc(-c3cccnc3)nc3[nH]ncc23)cc1NC(=O)c1ccc(CN2CCN(C)CC2)c(C(F)(F)F)c1` , write its GI50.
2370

###

- PROTOCOL_NOTES: AUC (0 to t) in Sprague-Dawley rat at 1 mg/kg, iv
- Format: ADME, organism-based
- Set-up: dose 1 mg/kg
- RECORDED_CONDITIONS: in vivo
RECORDED_ENDPOINT: AUC(0-t) (µg·h/mL)
Unit µg·h/mL implied. Number only.

Give AUC(0-t) for `Cc1ccc(C(=O)Nc2ccc(CN3CCN(C)CC3)c(C(F)(F)F)c2)cc1Oc1nc(-c2cccnc2)nc2[nH]ncc12`
6.96

###

- ASSAY_TARGET: Coiled-coil domain-containing protein 6/Tyrosine-protein kinase receptor RET (Homo sapiens, UniProt P07949)
- Sequence (Q16204 whole entry, one chain of several, further chain, the tested form may be a part): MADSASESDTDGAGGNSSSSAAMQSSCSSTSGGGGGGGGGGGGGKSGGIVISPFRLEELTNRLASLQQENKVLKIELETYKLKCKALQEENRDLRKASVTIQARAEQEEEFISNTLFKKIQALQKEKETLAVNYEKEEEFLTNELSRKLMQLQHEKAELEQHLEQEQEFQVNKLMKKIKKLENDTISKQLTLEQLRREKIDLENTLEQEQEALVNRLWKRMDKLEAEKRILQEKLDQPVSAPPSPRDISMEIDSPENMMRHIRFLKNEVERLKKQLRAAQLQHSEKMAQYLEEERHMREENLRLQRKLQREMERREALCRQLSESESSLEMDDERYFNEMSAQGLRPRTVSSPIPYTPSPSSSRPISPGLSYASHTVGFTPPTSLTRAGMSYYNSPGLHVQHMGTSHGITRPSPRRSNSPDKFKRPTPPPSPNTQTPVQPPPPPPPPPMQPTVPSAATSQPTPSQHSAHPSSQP
- PROTOCOL_NOTES: Inhibition of human N-terminal GST-HIS6 fused CCDC6-RET fusion protein (Met1 to Ser503 residues) expressed in Sf9 insect cells using TRK-C-derived peptide as substrate in presence of [33P]-ATP by filter binding assay
RECORDED_ENDPOINT: pIC50
Recall that pIC50 is obtained by taking minus log10 of the concentration measured in molar.

Return the recorded pIC50 value; entry: `Cc1ccc(C(=O)Nc2ccc(CN3CCN(C)CC3)c(C(F)(F)F)c2)cc1Oc1nc(-c2cccnc2)nc2[nH]ncc12`
8.27

###

- PROTOCOL_NOTES: Tmax in Sprague-Dawley rat at 1 mg/kg, iv
- Assay type: ADME, organism-based
- RECORDED_CONDITIONS: in vivo
RECORDED_ENDPOINT: Tmax (min)
Express your answer in min, writing the number without its unit.

For the compound `Cc1ccc(C(=O)Nc2ccc(CN3CCN(C)CC3)c(C(F)(F)F)c2)cc1Oc1nc(-c2cccnc2)nc2[nH]ncc12` , give its reported Tmax.
4.98

###

- ASSAY_TARGET: Proto-oncogene tyrosine-protein kinase receptor Ret (Homo sapiens, UniProt P07949, V804M)
- Sequence (P07949 29-1114 V804M limits assumed): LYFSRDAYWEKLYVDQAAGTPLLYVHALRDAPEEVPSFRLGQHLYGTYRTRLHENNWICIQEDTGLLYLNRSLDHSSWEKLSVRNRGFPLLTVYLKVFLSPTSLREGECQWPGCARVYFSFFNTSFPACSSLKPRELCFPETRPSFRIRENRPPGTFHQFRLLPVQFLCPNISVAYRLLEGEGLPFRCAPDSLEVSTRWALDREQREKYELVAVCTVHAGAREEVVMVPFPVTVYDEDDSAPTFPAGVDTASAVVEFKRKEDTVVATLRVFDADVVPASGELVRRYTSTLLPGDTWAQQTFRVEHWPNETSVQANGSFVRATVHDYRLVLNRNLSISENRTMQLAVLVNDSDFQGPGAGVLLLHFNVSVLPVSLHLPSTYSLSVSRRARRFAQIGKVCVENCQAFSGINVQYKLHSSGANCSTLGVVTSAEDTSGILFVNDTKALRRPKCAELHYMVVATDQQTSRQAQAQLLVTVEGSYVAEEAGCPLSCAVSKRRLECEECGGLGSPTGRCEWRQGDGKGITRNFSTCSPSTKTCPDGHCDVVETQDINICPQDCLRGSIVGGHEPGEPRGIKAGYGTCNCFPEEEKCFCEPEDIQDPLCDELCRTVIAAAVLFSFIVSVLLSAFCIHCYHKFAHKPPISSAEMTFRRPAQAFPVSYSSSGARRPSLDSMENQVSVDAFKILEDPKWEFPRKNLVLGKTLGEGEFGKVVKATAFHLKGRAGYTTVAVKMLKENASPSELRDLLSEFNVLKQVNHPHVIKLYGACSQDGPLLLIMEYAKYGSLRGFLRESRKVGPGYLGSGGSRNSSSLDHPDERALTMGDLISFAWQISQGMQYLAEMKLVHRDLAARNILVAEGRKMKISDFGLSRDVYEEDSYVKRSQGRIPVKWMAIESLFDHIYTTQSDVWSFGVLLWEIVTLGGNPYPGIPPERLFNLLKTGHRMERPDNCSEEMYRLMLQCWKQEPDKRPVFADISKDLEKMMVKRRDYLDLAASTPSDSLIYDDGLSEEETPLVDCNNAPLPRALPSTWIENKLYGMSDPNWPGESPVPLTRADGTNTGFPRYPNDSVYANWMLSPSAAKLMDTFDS
- PROTOCOL_NOTES: Inhibition of recombinant human N-terminal GST-HIS6 fused RET V804M mutant C-terminal domain (H658 to S1114 residues) expressed in Sf9 insect cells using TRK-C-derived peptide as substrate in presence of [33P]-ATP by filter binding assay
RECORDED_ENDPOINT: IC50 (nM)
Write down the numeric answer in nM and omit the unit.

Read off the recorded IC50 for `Cc1ccc(C(=O)Nc2ccc(CN3CCN(C)CC3)c(C(F)(F)F)c2)cc1Oc1nc(-c2cccnc2)nc2[nH]ncc12`
7.86
